Known MIC90 of a selection of compounds
Test system: Mycobacterium tuberculosis
Assay: Antitubercular activity against Mycobacterium tuberculosis H37Ra assessed as reduction in microbial growth
Assay type: functional
MEASURED_QUANTITY: MIC90 (µM)

>>> numeric_result("COc1cc(O)c2c(=O)c(OC)c(-c3cccc(Cl)c3OC(=O)c3ccccc3)oc2c1OC")
1
>>> numeric_result("COc1cc(OC(=O)c2ccccc2)c2c(=O)c(OC)c(-c3cccc(Cl)c3OC(=O)c3ccccc3)oc2c1OC")
1.7
>>> numeric_result("COc1cc(O)c2c(=O)c(OC)c(-c3cccc(Cl)c3OC(=O)/C=C/c3ccsc3)oc2c1OC")
1.9
>>> numeric_result("COc1cc(C(=O)Oc2c(Cl)cccc2-c2oc3c(OC)c(OC)cc(O)c3c(=O)c2OC)cc(OC)c1OC")
1.8
>>> numeric_result("COc1cc(/C=C/C(=O)Oc2c(Cl)cccc2-c2oc3c(OC)c(OC)cc(O)c3c(=O)c2OC)cc(OC)c1OC")
1.7
>>> numeric_result("COc1cc(O)c2c(=O)c(OC)c(-c3cccc(Cl)c3O)oc2c1OC")
2.6
>>> numeric_result("COc1cc(O)c2c(=O)c(OC)c(-c3cccc(Cl)c3OC(=O)/C=C/c3ccc(C(F)(F)F)cc3)oc2c1OC")
1.7
>>> numeric_result("COc1cc(O)c2c(=O)c(OC)c(-c3cccc(Cl)c3OC(=O)c3cccc(Br)c3)oc2c1OC")
1.8
